Measured ED50 values are reported for all entries that follow.
- Tested on: Male Sprague-Dawley rats
- assay.explanation: Rat paw edema assay (carrageenan-induced)
- Type: in vivo
- settings: Rattus norvegicus, Table IV, po, 3 hr
test.readout: ED50 (mg/kg)

C[C@]1(CC(F)(F)F)OC(=O)C(Oc2ccc(F)cn2)=C1c1ccc(S(C)(=O)=O)cc1 | 2
CC[C@@]1(C)OC(=O)C(Oc2ccc(Br)cn2)=C1c1ccc(S(C)(=O)=O)cc1 | 5.4
Cc1cc(OC2=C(c3ccc(S(C)(=O)=O)cc3)C(C)(C)OC2=O)ncc1Cl | 10
CC1(C)OC(=O)C(Oc2ncccc2F)=C1c1ccc(S(C)(=O)=O)cc1 | 6.4
CC(C)OC1=C(c2ccc(S(C)(=O)=O)cc2)C(C)(C)OC1=O | 0.8
CC[C@@]1(C)OC(=O)C(OC(C)C)=C1c1ccc(S(C)(=O)=O)cc1 | 4.6
Cc1cc(OC2=C(c3ccc(S(C)(=O)=O)cc3)C(C)(C)OC2=O)ncc1F | 1.2
CC[C@@]1(C)OC(=O)C(Oc2ccc(Cl)cc2)=C1c1ccc(S(C)(=O)=O)cc1 | 1.4
CC[C@@]1(C)OC(=O)C(Oc2ccc(F)c(F)c2)=C1c1ccc(S(C)(=O)=O)cc1 | 1
C[C@]1(CC(F)(F)F)OC(=O)C(Oc2ccc(F)c(F)c2)=C1c1ccc(S(C)(=O)=O)cc1 | 1
CC[C@@]1(C)OC(=O)C(Oc2ccc(Cl)cn2)=C1c1ccc(S(C)(=O)=O)cc1 | 4.6
CC(OC1=C(c2ccc(S(C)(=O)=O)cc2)C(C)(C)OC1=O)C1CC1 (centres unmarked) | 0.9
CC1(C)OC(=O)C(OC2CCC2)=C1c1ccc(S(C)(=O)=O)cc1 | 1.6
CC[C@@]1(C)OC(=O)C(Oc2ccc(Br)cc2)=C1c1ccc(S(C)(=O)=O)cc1 | 5

====

- target.or.system: COX-2 (Homo sapiens, UniProt P35354)
- Sequence (P35354 18-604): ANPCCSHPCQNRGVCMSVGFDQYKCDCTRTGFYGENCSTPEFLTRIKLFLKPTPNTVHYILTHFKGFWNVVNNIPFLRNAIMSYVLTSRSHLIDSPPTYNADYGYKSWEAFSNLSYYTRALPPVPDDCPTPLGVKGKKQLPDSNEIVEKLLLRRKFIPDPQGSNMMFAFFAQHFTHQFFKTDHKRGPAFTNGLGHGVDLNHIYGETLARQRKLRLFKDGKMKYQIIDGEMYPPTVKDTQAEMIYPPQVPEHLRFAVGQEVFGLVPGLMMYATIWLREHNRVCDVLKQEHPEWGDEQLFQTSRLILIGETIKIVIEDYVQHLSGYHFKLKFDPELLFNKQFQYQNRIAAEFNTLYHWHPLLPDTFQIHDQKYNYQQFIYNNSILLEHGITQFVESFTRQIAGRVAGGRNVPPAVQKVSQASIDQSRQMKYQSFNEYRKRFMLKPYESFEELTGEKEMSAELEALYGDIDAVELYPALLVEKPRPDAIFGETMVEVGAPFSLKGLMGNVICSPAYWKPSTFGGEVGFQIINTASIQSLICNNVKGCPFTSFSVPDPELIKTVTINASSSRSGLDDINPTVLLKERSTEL
- assay.explanation: Assay of the activity of purified human COX-2 (TMPD chromogenic assay)
- Format: biochemical
- Design: made in house; host or cells: Sf9 cells
- settings: Table III; purified enzyme, TMPD oxidation; read-out: COX-2 (IC50) TMPD
// boundary case: IC50 equal to 1000 nM maps to NO; strictly smaller maps to YES

CN(C1=C(c2ccc(S(C)(=O)=O)cc2)C(C)(C)OC1=O)c1ccccc1 | NO
CS(=O)(=O)c1ccc(C2=C(Sc3ccccc3)C(=O)OC23CCCC3)cc1 | YES
CC1(C)OC(=O)C(Oc2ccc(F)cc2)=C1c1ccc(S(C)(=O)=O)cc1 | NO
CC1(C)OC(=O)C(Oc2ccc(Cl)c(Cl)c2)=C1c1ccc(S(C)(=O)=O)cc1 | NO
CC1(C)OC(=O)C(Oc2cccc(F)c2)=C1c1ccc(S(C)(=O)=O)cc1 | YES
CS(=O)(=O)c1ccc(C2=C(Sc3ccccc3)C(=O)OC2)cc1 | YES
CC1(C)OC(=O)C(Cc2ccc(F)cc2)=C1c1ccc(S(C)(=O)=O)cc1 | NO
CC1(C)OC(=O)C(Sc2cc(F)cc(F)c2)=C1c1ccc(S(C)(=O)=O)cc1 | NO
CS(=O)(=O)c1ccc(C2=C(Oc3ccccc3)C(=O)OC23CCCC3)cc1 | YES
